# Tested on: SW620
# assay explanation: EC50 for viability (resazurin, 96 h)
# setup conditions: RPMI+GlutaMAX (10% FBS, 1% P/S); metabolite supplement: Thymidine + Folic acid
# key: entry, value: EC50 for viability
Reply with just the number (in µM).

[
  {
    "compound": "O=c1[nH]cc(F)c(=O)[nH]1",
    "recorded value": 4.5
  },
  {
    "compound": "Nc1nc(N)c(CC(=O)Nc2cnc(C(=O)N[C@@H](CCC(=O)O)C(=O)O)c(F)c2)c(=O)[nH]1",
    "recorded value": 8.88
  },
  {
    "compound": "Nc1nc(N)c(NC(=O)Nc2cnc(C(=O)N[C@@H](CCc3nnn[nH]3)C(=O)O)c(F)c2)c(=O)[nH]1",
    "recorded value": 1.92
  }
]

Switching to the query record.
q: Supply measured EC50 for viability of CN(Cc1cnc2nc(N)nc(N)c2n1)c1ccc(C(=O)N[C@@H](CCC(=O)O)C(=O)O)cc1 [methotrexate] in your reply.
a: 0.0818
